- Test system: adult female Sprague-Dawley rats
- Protocol Details: rat infusion study: loss/recovery of righting reflex and walk (anaesthetic effect)
- Assay type: in vivo
- Measurement Conditions: total drug administered to achieve loss of righting reflex; i.v. infusion
Can you tell me LRR Dose for the items I'm about to list?
One number for each entry, in mg/kg.

In the examples that follow, each entry is paired with its recorded LRR Dose.
{"Compound": "CCOC(=O)CCN[C@]1(c2ccccc2Cl)CCCCC1=O.Cl [(S)-C2Et]", "LRR Dose [mg/kg]": 59}
{"Compound": "CCCOC(=O)CCNC1(c2ccccc2Cl)CCCCC1=O.Cl (racemic)", "LRR Dose [mg/kg]": 131}
{"Compound": "CCCOC(=O)CCCNC1(c2ccccc2Cl)CCCCC1=O.Cl (racemic)", "LRR Dose [mg/kg]": 137}

// switching to the query compound
The compound listed as CCCOC(=O)CCCCNC1(c2ccccc2Cl)CCCCC1=O.Cl (racemic) has a reported LRR Dose of 82
